Target: CCR3 receptor (UniProt P51677)
Test: CCR3 Receptor Binding Assay ([125I]-labeled human eotaxin/CCL11 displacement on cells)
Conditions: HNO3 salt
Procedure: Cells were washed once with PBS and resuspended in a binding buffer (25 mM HEPES pH 7.6, 5 mM MgCl2, 1 mM CaCl2, 0.5% BSA, 0.1% NaN3), […] of cell suspension (2×10^5 cells/well) and 0.1 nM [^125I]-labeled human eotaxin/CCL11 (2000 Ci/mmol specific activity) were mixed in a 96-well U-bottom polypropylene plate, and incubated for 60 min at room temperature for the binding reaction. […]
pKi: −log10 of the molar value.
measured_property: pKi

## Input Recorded pKi for `N#Cc1ccc(Sc2cc(Cl)ccc2Cl)c(S(=O)(=O)N2CCN(C3CCCC3)CC2)c1` with CCR3 receptor (UniProt P51677), please?
## Output 7.00 to 7.60

----------
Please go through the items and note down their pKi.
target: CCR3 receptor (UniProt P51677); test: CCR3 Receptor Binding Assay ([125I]-labeled human eotaxin/CCL11 displacement on cells); details: Free (free form of the compound)
pKi: −log10 of the molar value.

Here's what some known entries look like.
>  <smiles_code>
O=C1CN(S(=O)(=O)c2cc([N+](=O)[O-])ccc2Oc2cc(Cl)ccc2Cl)CCN1

>  <value_reported>
7.60 to 8.00

$$$$
>  <smiles_code>
Cc1ccc(C)c(Sc2ccc(C#N)cc2S(=O)(=O)N2CCS(=O)(=O)CC2)c1

>  <value_reported>
< 8.30

$$$$
>  <smiles_code>
Cc1ccc(C)c(Oc2ccc([N+](=O)[O-])cc2S(=O)(=O)N2CCSCC2)c1

>  <value_reported>
< 8.30

$$$$
>  <smiles_code>
N#Cc1ccc(Oc2cc(F)ccc2F)c(S(=O)(=O)NCCN2CCCCC2)c1

>  <value_reported>
< 8.30

$$$$
>  <smiles_code>
Cc1ccc(C)c(Sc2ccc([N+](=O)[O-])cc2S(=O)(=O)N2CCNCC2)c1

>  <value_reported>
6.30 to 7.00

$$$$

Count: 3. Required value per item: pKi.
1. CCN1CCN(S(=O)(=O)c2cc([N+](=O)[O-])ccc2Oc2cc(Cl)ccc2Cl)CC1
2. CN1CCCN(S(=O)(=O)c2cc(C#N)ccc2Oc2cc(Cl)ccc2Cl)CC1
3. N#Cc1ccc(Oc2cc(Cl)ccc2Cl)c(S(=O)(=O)N2CCN(C3CCCCCC3)CC2)c1

## Output
["≥ 8.00", "7.00 to 7.60", "7.60 to 8.00"]

----------
Counter-ions that a name gives are not always drawn.
measured_property: melting point

Worked cases, answers included:
>  <molecule>
Cc1ccc(C)c(Oc2ccc([N+](=O)[O-])cc2S(=O)(=O)N2CCOCC2)c1 [Compound 113]

>  <melting point>
124 to 127 °C

$$$$
>  <molecule>
CC(C)N1CCN(S(=O)(=O)c2cc(C#N)ccc2Oc2cc(F)ccc2F)CC1 (as salt: hydrochloride) [Compound 54]

>  <melting point>
179 to 182 °C

$$$$
>  <molecule>
O=[N+]([O-])c1ccc(Sc2cc(Cl)ccc2Cl)c(S(=O)(=O)N2CCNCC2)c1 [Compound 123]

>  <melting point>
150 to 153 °C

$$$$
>  <molecule>
CC1CN(S(=O)(=O)c2cc(C#N)ccc2Oc2cc(F)ccc2F)CC(C)N1 (stereo not shown) (as salt: hydrochloride) [Compound 53]

>  <melting point>
157 to 159 °C

$$$$
>  <molecule>
O=[N+]([O-])c1ccc(Sc2cc(Cl)ccc2Cl)c(S(=O)(=O)N2CCOCC2)c1 [Compound 110]

>  <melting point>
182 to 186 °C

$$$$

Batch of 2 molecules: report melting point for each.
1. O=[N+]([O-])c1ccc(Oc2cc(Cl)ccc2Cl)c(S(=O)(=O)N2CCSCC2)c1 [Compound 115]
2. O=[N+]([O-])c1ccc(Oc2cc(Cl)ccc2Cl)c(S(=O)(=O)N2CCOCC2)c1 [Compound 111]

## Output
1: 191 to 194 °C; 2: 168 to 170 °C

----------
target: CCR3 receptor (UniProt P51677); assay: CCR3 Receptor Binding Assay ([125I]-labeled human eotaxin/CCL11 displacement on cells); settings: Free (free form of the compound)
Provide the reported Ki of each item.

These recorded examples may help you get a feel for the data.
>  <compound>
CC(C)(O)C1CCN(S(=O)(=O)c2cc(C#N)ccc2Oc2cc(Cl)ccc2Cl)CC1 [Compound 97]

>  <target_of_assay>
CCR3 receptor (UniProt P51677)

>  <measured_property>
Ki

>  <value_reported>
100 to 500 nM

$$$$
>  <compound>
O=[N+]([O-])c1ccc(Oc2cc(Cl)ccc2Cl)c(S(=O)(=O)N2CCSCC2)c1 [Compound 115]

>  <target_of_assay>
CCR3 receptor (UniProt P51677)

>  <measured_property>
Ki

>  <value_reported>
> 5 nM

$$$$

Report Ki for each item below.
1. N#Cc1ccc(Oc2cc(F)ccc2F)c(S(=O)(=O)NCCN2CCCC2)c1 [Compound 63]
2. Cc1ccc(C)c(Oc2ccc(C#N)cc2S(=O)(=O)N2CCNCC2)c1 [Compound 51]
3. Cc1ccc(C)c(Sc2ccc(C#N)cc2S(=O)(=O)N2CC(C)NC(C)C2)c1 (stereo not shown) [Compound 66]
4. CN1CCCN(S(=O)(=O)c2cc(C#N)ccc2Sc2cc(Cl)ccc2Cl)CC1 [Compound 81]
5. O=[N+]([O-])c1ccc(Sc2cc(Cl)ccc2Cl)c(S(=O)(=O)N2CCCNCC2)c1 [Compound 127]

## Output
1. > 5 nM
2. 100 to 500 nM
3. ≤ 10 nM
4. ≤ 10 nM
5. > 5 nM

----------
target: UniProtKB P51677; assay: CCR3 Receptor Binding Assay ([125I]-labeled human eotaxin/CCL11 displacement on cells); conditions: Free (free form of the compound)
measured_property: Ki

# count of solved cases: 6
>  <compound>
CCN1CCN(S(=O)(=O)c2cc([N+](=O)[O-])ccc2Sc2cc(Cl)ccc2Cl)CC1 [Compound 99]

>  <target_of_assay>
UniProtKB P51677

>  <value_reported>
10 to 25 nM

$$$$
>  <compound>
CC(C)N1CCN(S(=O)(=O)c2cc(C#N)ccc2Sc2cc(Cl)ccc2Cl)CC1 [Compound 77]

>  <target_of_assay>
UniProtKB P51677

>  <value_reported>
≤ 10 nM

$$$$
>  <compound>
CN1CCN(S(=O)(=O)c2cc([N+](=O)[O-])ccc2Sc2cc(Cl)ccc2Cl)CC1 [Compound 133]

>  <target_of_assay>
UniProtKB P51677

>  <value_reported>
> 5 nM

$$$$
>  <compound>
CCC(CC)N1CCN(S(=O)(=O)c2cc(C#N)ccc2Oc2cc(Cl)ccc2Cl)CC1 [Compound 89]

>  <target_of_assay>
UniProtKB P51677

>  <value_reported>
10 to 25 nM

$$$$
>  <compound>
O=[N+]([O-])c1ccc(Sc2cc(Cl)ccc2Cl)c(S(=O)(=O)N2CCN(C3CCCCC3)CC2)c1 [Compound 118]

>  <target_of_assay>
UniProtKB P51677

>  <value_reported>
10 to 25 nM

$$$$
>  <compound>
CCCC(C)N1CCN(S(=O)(=O)c2cc(C#N)ccc2Oc2cc(Cl)ccc2Cl)CC1 (stereo not shown) [Compound 90]

>  <target_of_assay>
UniProtKB P51677

>  <value_reported>
10 to 25 nM

$$$$

Dear colleague, could you send me Ki for each of the items below? Thanks.
1. O=[N+]([O-])c1ccc(Sc2cc(Cl)ccc2Cl)c(S(=O)(=O)N2CCSCC2)c1 [Compound 114]
2. O=[N+]([O-])c1ccc(Oc2cc(Cl)ccc2Cl)c(S(=O)(=O)N2CCNCC2)c1 [Compound 147]
3. N#Cc1ccc(Sc2cc(Cl)ccc2Cl)c(S(=O)(=O)N2CCOCC2)c1 [Compound 82]
4. N#Cc1ccc(Oc2cc(F)ccc2F)c(S(=O)(=O)N2CCN(C3CCCC3)CC2)c1 [Compound 56]
5. CCN1CCN(S(=O)(=O)c2cc([N+](=O)[O-])ccc2Sc2cc(C)ccc2C)CC1 [Compound 101]

## Output
["> 5 nM", "> 5 nM", "100 to 500 nM", "25 to 100 nM", "> 5 nM"]

Please go through the list and note Ki for each compound.
1. Cc1ccc(C)c(Oc2ccc([N+](=O)[O-])cc2S(=O)(=O)N2CCN(C3CCCCC3)CC2)c1 [Compound 121]
2. Cc1ccc(C)c(Sc2ccc(C#N)cc2S(=O)(=O)N2CCC(N3CCCC3)CC2)c1 [Compound 74]

## Output
["≤ 10 nM", "10 to 25 nM"]

----------
Target: CCR3 receptor (UniProt P51677)
Sequence (P51677 1-355): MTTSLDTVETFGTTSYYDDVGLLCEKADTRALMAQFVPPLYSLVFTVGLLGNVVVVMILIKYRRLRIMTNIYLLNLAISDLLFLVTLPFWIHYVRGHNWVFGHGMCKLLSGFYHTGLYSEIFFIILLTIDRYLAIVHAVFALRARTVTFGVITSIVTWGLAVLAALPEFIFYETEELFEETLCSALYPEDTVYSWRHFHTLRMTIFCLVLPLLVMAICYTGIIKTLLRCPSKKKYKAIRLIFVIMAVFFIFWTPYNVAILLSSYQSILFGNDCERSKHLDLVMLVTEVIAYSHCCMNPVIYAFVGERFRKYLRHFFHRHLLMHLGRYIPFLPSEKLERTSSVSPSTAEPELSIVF
Experiment: CCR3 Receptor Binding Assay ([125I]-labeled human eotaxin/CCL11 displacement on cells)
Settings: EtSO3H salt
measured_property: Ki

## Input Checklist item: Ki tested on CCR3 receptor (UniProt P51677), entry `N#Cc1ccc(Sc2cc(Cl)ccc2Cl)c(S(=O)(=O)N2CCN(C3CCCC3)CC2)c1` , value?
## Output ≤ 10 nM
